- target.or.system: human IL-13 (source not stated for the assay) (human, UniProt P35225 35-146, limits assumed)
- Sequence (P35225 35-146 limits assumed): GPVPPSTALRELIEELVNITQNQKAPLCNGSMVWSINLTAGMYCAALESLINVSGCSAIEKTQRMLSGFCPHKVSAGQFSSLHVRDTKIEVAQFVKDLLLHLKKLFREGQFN
- test.summary: cell-based or functional assay
assay.metric: IC50, IL-13 induced eotaxin release, Average (pM)
Numbers only, in pM.

Ask | Find the recorded IC50, IL-13 induced eotaxin release, Average belonging to mAb 693 (antibody, V domains shown, also called sc693) VH: QVQLQESGPGLVKPSETLSLTCSVSGGSISSYYWSWIRQPAGKGLEWIGRIYMTGRTNYNSSLKSRVTMSIDTSKNQLSLKLSFMTAADTAVYYCARESGSSYSYDYWGQGTLVTVSS VL: SYVLTQPPSVSVAPGQTARITCGGNNIGSKGVHWYQQKPGQAPVLVVYDDSDRPSGIPERFSGSNSGNTATLTISRVEAGDEADYYCQVWVSSSDHHVVFGGGTKLTVV and report it.
Reply | 54
